target: human V2 receptor (Homo sapiens); assay: In-vitro receptor binding assay (3H-arginine-8-vasopressin), V2
experimental.endpoint: IC50 (µM)

{"compound": "Cc1ccc(F)cc1C(=O)Nc1ccc(C(=O)N2CCC3(C=C(C(=O)NCCCN4CCOCC4)CC3)Cc3ccccc32)cc1 (stereo not drawn)", "IC50 (µM)": 0.039}
{"compound": "Cc1ccc(F)cc1C(=O)Nc1ccc(C(=O)N2CCC3(C=C(C(=O)NCCN4CCCCC4)CC3)Cc3ccccc32)cc1 (stereo not drawn)", "IC50 (µM)": 0.082}
{"compound": "O=CC1=CC2(CC1)CCN(C(=O)c1ccc(NC(=O)c3ccccc3-c3ccccc3)cc1)c1ccccc1C2 (stereo not drawn)", "IC50 (µM)": 0.029}

A = O=C(Nc1ccc(C(=O)N2CCC3(C=CCCC3)Cc3ccccc32)c(Cl)c1)c1ccccc1-c1ccccc1 (stereo not drawn)
B = COc1ccccc1C(=O)Nc1ccc(C(=O)N2CCC3(C=CCCC3)Cc3ccccc32)cc1 (stereo not drawn)
C = CN(C)CCNC(=O)C1=CC2(CC1)CCN(C(=O)c1ccc(NC(=O)c3ccccc3-c3ccccc3)cc1)c1ccccc1C2 (stereo not drawn) [Compound 9]
D = Cc1ccc(F)cc1C(=O)Nc1ccc(C(=O)N2CCC3(C=CCCC3)Cc3ccccc32)c(Cl)c1 (stereo not drawn)
Rank the items in ascending order with respect to IC50. // format: requested-order list of labels
C, D, A, B
(C: 0.011 µM, D: 0.045 µM, A: 0.085 µM, B: 0.2 µM)

a = O=C(Nc1ccc(C(=O)N2CCC3(C=CCCC3)Cc3ccccc32)cc1)c1c(Cl)cccc1Cl (stereo not drawn)
b = O=C(Nc1ccc(C(=O)N2CCC3(C=C(C(=O)N4CCN(c5ccncc5)CC4)CC3)Cc3ccccc32)cc1)c1ccccc1-c1ccccc1 (stereo not drawn)
# returns the entry with the larger IC50; inputs a and b Your answer should be the label of the entry you select.
a

a = Cc1ccccc1NC(=O)c1ccc(C(=O)N2CCC3(C=CCCC3)Cc3ccccc32)cc1 (stereo not drawn)
b = Cc1ccc(F)cc1C(=O)Nc1ccc(C(=O)N2CCC3(C=C(C(=O)NCCO)CC3)Cc3ccccc32)c(Cl)c1 (stereo not drawn)
# returns the entry with the larger IC50; inputs a and b Your answer should be the label of the entry you select.
a
(a: 0.2 µM, b: 0.01 µM)

* * *

molecular target: human V2 receptor (Homo sapiens, UniProt P30518); test: In-vitro receptor binding assay (3H-arginine-8-vasopressin), V2; details: @ 1 μM; read-out: Receptor Binding V2 (% Inh. @ concentration in μM)
Sequence (P30518 whole entry): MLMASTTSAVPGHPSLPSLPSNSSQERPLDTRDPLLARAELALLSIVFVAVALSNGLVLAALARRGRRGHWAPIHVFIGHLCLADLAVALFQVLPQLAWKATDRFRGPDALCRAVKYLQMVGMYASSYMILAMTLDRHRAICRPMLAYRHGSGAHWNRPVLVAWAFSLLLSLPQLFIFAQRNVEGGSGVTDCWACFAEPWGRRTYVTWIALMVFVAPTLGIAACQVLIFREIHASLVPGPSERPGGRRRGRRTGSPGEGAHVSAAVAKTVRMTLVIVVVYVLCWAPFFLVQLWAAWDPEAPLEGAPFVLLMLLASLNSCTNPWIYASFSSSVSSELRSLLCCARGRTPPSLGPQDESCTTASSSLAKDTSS
experimental.endpoint: inhibition at 1 µM (%)

{"molecule": "CC(C)COc1ccc(C(=O)N2CCC3(C=CCCC3)Cc3ccccc32)cc1 (centres unmarked)", "subject.of.test": "human V2 receptor (Homo sapiens, UniProt P30518)", "experimental.endpoint": "inhibition at 1 µM", "recorded.measurement": 10}
{"molecule": "CCCCC(=O)N1CCC(Oc2ccc(C(=O)N3CCC4(C=CCCC4)Cc4ccccc43)cc2F)CC1 (centres unmarked)", "subject.of.test": "human V2 receptor (Homo sapiens, UniProt P30518)", "experimental.endpoint": "inhibition at 1 µM", "recorded.measurement": 8}
{"molecule": "COC(=O)C1=CC2(CC1)CCN(C(=O)c1ccc(-n3nccc3C)c(N)c1)c1ccccc1C2 (centres unmarked)", "subject.of.test": "human V2 receptor (Homo sapiens, UniProt P30518)", "experimental.endpoint": "inhibition at 1 µM", "recorded.measurement": 16}
{"molecule": "O=C(c1ccc(-n2ccc(CO)c2)cc1)N1CCC2(C=CCCC2)Cc2ccccc21 (centres unmarked)", "subject.of.test": "human V2 receptor (Homo sapiens, UniProt P30518)", "experimental.endpoint": "inhibition at 1 µM", "recorded.measurement": 36}
{"molecule": "CSc1cccc(C(=O)Nc2ccc(C(=O)N3CCC4(C=CCCC4)Cc4ccccc43)cc2)c1 (centres unmarked)", "subject.of.test": "human V2 receptor (Homo sapiens, UniProt P30518)", "experimental.endpoint": "inhibition at 1 µM", "recorded.measurement": 26}
{"molecule": "COc1cc(C(=O)N2CCC3(C=C(C(=O)NCCN(C)C)CC3)Cc3ccccc32)ccc1[N+](=O)[O-] (centres unmarked)", "subject.of.test": "human V2 receptor (Homo sapiens, UniProt P30518)", "experimental.endpoint": "inhibition at 1 µM", "recorded.measurement": 11}
{"molecule": "CC(=O)N1CCC(Oc2ccc(C(=O)N3CCC4(C=CCCC4)Cc4ccccc43)cc2F)CC1 (centres unmarked)", "subject.of.test": "human V2 receptor (Homo sapiens, UniProt P30518)", "experimental.endpoint": "inhibition at 1 µM", "recorded.measurement": 0}
{"molecule": "O=C(Nc1ccccc1)Nc1ccc(C(=O)N2CCC3(C=CCCC3)Cc3ccccc32)cc1 (centres unmarked)", "subject.of.test": "human V2 receptor (Homo sapiens, UniProt P30518)", "experimental.endpoint": "inhibition at 1 µM", "recorded.measurement": 25}

P = O=C(c1ccccc1F)N1CCC2(C=CCCC2)Cc2ccccc21 (centres unmarked)
Q = COc1cc(C(=O)N2CCC3(C=C(C(=O)NCCN(C)C)CC3)Cc3ccccc32)ccc1N (centres unmarked)
R = CSc1ccc(C(=O)N2CCC3(C=CCCC3)Cc3ccccc32)cc1 (centres unmarked)
Sort the 3 molecules by inhibition at 1 µM; largest first, smallest last. // format: requested-order list of labels
P, Q, R
(P: 21%, Q: 7%, R: 0%)

I = CC(C)Nc1ccc(C(=O)N2CCC3(C=CCCC3)Cc3ccccc32)cc1 (centres unmarked)
II = Cc1ccc(C(=O)Nc2ccc(C(=O)N3CCC4(C=CCCC4)Cc4ccccc43)cc2)cc1 (centres unmarked)
Of I versus II , which is the one with smaller reported inhibition at 1 µM? Your answer should be the label of the entry you select.
I

P = COc1cc(-n2ccc(CO)c2)ccc1C(=O)N1CCC2(C=C(C(=O)NCCN(C)C)CC2)Cc2ccccc21 (centres unmarked)
Q = COc1ccc(C(=O)N2CCC3(CCCCC3=O)Cc3ccccc32)cc1 (centres unmarked)
R = O=C(c1ccc(OCC2CCCCC2)cc1)N1CCC2(C=CCCC2)Cc2ccccc21 (centres unmarked)
S = CCCCN1CCC(Oc2ccc(C(=O)N3CCC4(C=CCCC4)Cc4ccccc43)cc2F)CC1 (centres unmarked)
T = COc1ccc(C(=O)N2Cc3ccccc3CC3(C=CCCC3)C2)cc1OC (centres unmarked)
Rank the items in ascending order with respect to inhibition at 1 µM. // format: requested-order list of labels
T, Q, R, P, S
(T: 0%, Q: 8%, R: 18%, P: 34%, S: 65%)

P = Cc1ccc(C(=O)Nc2ccc(C(=O)N3CCC4(C=CCCC4)Cc4ccccc43)cc2)cc1C (centres unmarked)
Q = COc1cc(C(=O)N2CCC3(C=C(C(=O)NCCN(C)C)CC3)Cc3ccccc32)ccc1-n1ccc(CO)c1 (centres unmarked)
# returns the entry with the larger inhibition at 1 µM; inputs P and Q Your answer should be the label of the entry you select.
P

1 = CON(C)Cc1ccn(-c2ccc(C(=O)N3CCC4(C=C(C(=O)NCCN(C)C)CC4)Cc4ccccc43)cc2)c1 (centres unmarked)
2 = O=C(c1ccc(-n2cccn2)c(F)c1)N1CCC2(C=CCCC2)Cc2ccccc21 (centres unmarked)
Of 1 versus 2 , which is the one with smaller reported inhibition at 1 µM? Your answer should be the label of the entry you select.
2
(2: 13%, 1: 22%)

P = Cc1cc(F)ccc1C(=O)Nc1ccc(C(=O)N2CCC3(C=CCCC3)Cc3ccccc32)cc1 (centres unmarked)
Q = CCN(C(=O)NCCCN(C)C)C(=O)C1=CC2(CC1)CCN(C(=O)c1ccc(N)c(OC)c1)c1ccccc1C2 (centres unmarked)
R = COc1ccc(C(=O)N2CCC3(C=CCCC3)Cc3ccccc32)cc1OC (centres unmarked)
Rank the items in ascending order with respect to inhibition at 1 µM. // format: requested-order list of labels
R, Q, P
(R: 1%, Q: 3%, P: 35%)

I = COc1cc(C(=O)N2CCC3(C=CCCC3)Cc3ccccc32)ccc1-n1ccc(CO)c1 (centres unmarked)
II = O=C(c1ccc(OCc2ccccc2)cc1)N1CCC2(C=CCCC2)Cc2ccccc21 (centres unmarked)
Of I versus II , which is the one with smaller reported inhibition at 1 µM? Your answer should be the label of the entry you select.
II
(II: 34%, I: 53%)

I = Cc1ccn(-c2ccc(C(=O)N3CCC4(C=C(C(=O)NCCN(C)C)CC4)Cc4ccccc43)cc2)n1 (centres unmarked)
II = CC(=O)Oc1ccc(C(=O)N2CCC3(C=CCCC3)Cc3ccccc32)cc1 (centres unmarked)
III = C[S+]([O-])c1ccc(C(=O)N2CCC3(C=CCCC3)Cc3ccccc32)cc1 (centres unmarked)
Sort the 3 molecules by inhibition at 1 µM; largest first, smallest last. // format: requested-order list of labels
I, III, II

a = O=C(Nc1ccc(C(=O)N2CCC3(C=CCCC3)Cc3ccccc32)cc1)c1ccncc1 (centres unmarked)
b = COC(=O)C1=CC2(CC1)CCN(C(=O)c1ccc(-n3ccc(C)n3)c(N(C)C)c1)c1ccccc1C2 (centres unmarked)
# returns the entry with the larger inhibition at 1 µM; inputs a and b Your answer should be the label of the entry you select.
b
(b: 55%, a: 36%)
